Entries and their melting point
Counter-ions that a name gives are not always drawn.

Sample records with melting point:
INSERT INTO measurements (compound, value_observed) VALUES
  ('Cc1nc(N2CCCCC2C)c2[nH]c(-c3ccccc3)cc2n1 (centres unmarked) (as salt: hydrochloride) (hydrate or solvate) [Example 63, Hydrochloride Monohydrate]', '268 to 269 °C'),
  ('Cc1nc(N2CCCCC2)c2[nH]c(-c3ccc(-c4ccccc4)cc3)cc2n1.Cl (hydrate or solvate)', '> 280 °C'),
  ('Cc1nc(N2CCCCC2)c2[nH]c(-c3ccc(F)c(F)c3)c(C)c2n1.Cl', '> 280 °C'),
  ('Cc1nc(N2CCCCC2)c2[nH]c(-c3ccc(O)c(F)c3)cc2n1.Cl (hydrate or solvate)', '> 280 °C'),
  ('Cc1nc(N2CCCCC2)c2[nH]c(Cc3ccc(F)cc3)cc2n1.Cl', '254 to 255 °C');

Query: Consider the compound Cc1nc(N2CCNCC2)c2[nH]c(-c3ccccc3)cc2n1 and give its measured melting point.
Reply: 236 °C

Query: Consider the compound CC(=O)c1c(-c2ccccc2)[nH]c2c(N3CCCCC3)nc(C)nc12 and give its measured melting point.
Reply: 188 to 190 °C

Query: Consider the compound Cc1nc(N2CCCCC2)c2[nH]c(-c3cccc(O)c3)cc2n1.Cl (hydrate or solvate) and give its measured melting point.
Reply: > 280 °C

Data origin: patent US6583154B1
